Examples of compounds with documented Growth Rate follow.
tested on: U2OS; assay: Incucyte cell viability with U2OS; assay type: toxicity, cell-based; conditions: human, 6 h, 10 µM, compound concentration 10 uM, replicate number 1; note: unitless GR value; below 1 slowed growth and below 0 cell loss
Answer as a number with no unit attached.

Examples with answers:
{"compound": "COc1c(-c2cn(C3CCC(=O)NC3=O)nn2)csc1C(=O)N1CCCC1 (stereo not drawn)", "measured-target": "U2OS", "Growth Rate": 0.89}
{"compound": "N=C(N)NCCC[C@H](NC(=O)C(c1ccccc1)c1ccccc1)C(=O)NCc1ccc(CNC(N)=O)cc1.O=C(O)C(F)(F)F", "measured-target": "U2OS", "Growth Rate": 0.97}
{"compound": "Cn1cc(-c2ccc(N(C(=O)NCc3ccccc3)[C@H]3CC[C@H](Nc4ccc(C#N)cn4)CC3)cc2)ccc1=O", "measured-target": "U2OS", "Growth Rate": 0.45}
{"compound": "CC(=O)Nc1cccc(-n2c(=O)n(C3CC3)c(=O)c3c(Nc4ccc(I)cc4F)n(C)c(=O)c(C)c32)c1", "measured-target": "U2OS", "Growth Rate": 0.99}
{"compound": "Cl.NC(=O)c1ccccc1Nc1nc(-c2ccc(N3CCOCC3)cc2)cc2ncccc12", "measured-target": "U2OS", "Growth Rate": 0.76}

Notebook: "COc1ccccc1S(=O)(=O)Nc1ccc2c(c1)CN(C)C(=O)N2" , Growth Rate read as 0.81

Notebook: "COc1cc(C(=O)O)ncc1C#Cc1ccccc1NS(=O)(=O)c1cccc2c(N(C)C)ccnc12" , Growth Rate read as 0.68

Notebook: CCC(C(=O)Nc1ccc(-c2cc3ccccc3s2)c(C(N)=O)c1)c1nccs1 (stereo not drawn) , Growth Rate read as 0.65

====

tested on: U2OS; assay: Incucyte cell viability with U2OS; type: toxicity, cell-based; details: human, 12 h, 10 µM, compound concentration 10 uM, replicate number 2; note: unitless GR value; below 1 slowed growth and below 0 cell loss
Please use 1 for Growth Rate under 0.6 and 0 for everything else, ties included.

Field: below-cutoff. Rule: recorded Growth Rate strictly less than 0.6. Subject: "O=C(Nc1ccc(-n2nc(C(F)(F)F)cc2C(F)(F)F)cc1)c1ccncc1F"
0

Field: below-cutoff. Rule: recorded Growth Rate strictly less than 0.6. Subject: COc1ccc2c(O[C@@H]3C[C@H]4C(=O)N[C@]5(C(=O)O)CC5/C=C\CCCCC[C@H](NC(=O)OC5CCCC5)C(=O)N4C3)cc(-c3csc(NC(=O)C(C)C)n3)nc2c1C (some centres undefined)
0

Field: below-cutoff. Rule: recorded Growth Rate strictly less than 0.6. Subject: "CO[C@H](C)CN1CC[C@]2(C)c3cccc(O)c3C[C@H]1C2(C)C.Cl"
0

Field: below-cutoff. Rule: recorded Growth Rate strictly less than 0.6. Subject: "CSc1ccc(C(=O)/C=C/c2cc(C)c(OC(C)(C)C(=O)O)c(C)c2)cc1"
0

Field: below-cutoff. Rule: recorded Growth Rate strictly less than 0.6. Subject: "Nc1ncc2c(n1)-c1c([nH]c3ccc(C4=CCOCC4)cc13)CCC2"
0

Field: below-cutoff. Rule: recorded Growth Rate strictly less than 0.6. Subject: "CC(C)(C)S(=O)(=O)c1ccc2nccc(Nc3n[nH]c4ccc(F)cc34)c2c1"
1

Field: below-cutoff. Rule: recorded Growth Rate strictly less than 0.6. Subject: "COc1cc2ncnc(Nc3ccc(F)c(Cl)c3)c2cc1OCCN(C)C[C@H](C)O"
1

====

tested on: HEK-293T; experiment: Incucyte cell viability with HEK293T; format: toxicity, cell-based; settings: human, 24 h, 10 µM, compound concentration 10 uM, replicate number 1; note: unitless GR value; below 1 slowed growth and below 0 cell loss
Examples of molecules with documented Growth Rate follow.
Answer as a number with no unit attached.

Examples with answers:
{"molecule": "NCC1CCC(CNc2nc(NCc3ccccc3OC(F)(F)F)ncc2[N+](=O)[O-])CC1 (configuration not stated)", "meas-value": 0.09}
{"molecule": "CNc1nc(Nc2ccc(C(=O)N3CCOCC3)cc2OC)nc2[nH]cc(Cl)c12", "meas-value": 0.27}
{"molecule": "Clc1ccccc1C(c1ccccc1)(c1ccccc1)n1ccnc1 [CLOTRIMAZOLE]", "meas-value": 0.72}
{"molecule": "CC[C@@H](Nc1c(C#N)c(-c2ccc(-c3cccc(C)c3F)cc2)nc2cnccc12)C(=O)O [BAY-091]", "meas-value": 0.78}
{"molecule": "Cc1nnsc1C(=O)Nc1ccc(-n2nc(C(F)(F)F)cc2C(F)(F)F)cc1", "meas-value": 0.58}

Notebook: "CC[C@](C)(O)C#Cc1cc2c(ccn2-c2cc(OC)nc(N)n2)cn1" , Growth Rate read as 0.84

Notebook: "COCc1c(-c2cc3cc(C)cc(OC)c3s2)c2c(N)ncnn2c1CN[C@@H]1CCNC1=O" , Growth Rate read as 0.62

Notebook: "COc1ccccc1[C@@H]1CNCCC12CCN(C(=O)[C@](OC)(c1ccccc1)C(F)(F)F)CC2" , Growth Rate read as 0.22

Notebook: Cn1c2ccccc2c2c3c(c4c5ccccc5n(CCC#N)c4c21)CNC3=O [GO-6976] , Growth Rate read as 0.7

====

system: U2OS; experiment: Incucyte cell viability with U2OS; format: toxicity, cell-based; settings: human, 0 h, 10 µM, compound concentration 10 uM, replicate number 1; note: unitless GR value; below 1 slowed growth and below 0 cell loss
Examples of compounds with documented Growth Rate follow.
Answer as a number with no unit attached.

{"compound": "Cn1ccc(Cn2cnc(-c3ccc(F)cc3)c2-c2ccnc3[nH]ccc23)n1", "meas-value": 0.48}
{"compound": "Cn1cc(-n2cnc3c(NCc4nc5cc(Cl)c(Cl)cc5[nH]4)nc(N4CCOCC4)nc32)cn1", "meas-value": -0.99}
{"compound": "CCc1ccc(N(CC(C)C)S(=O)(=O)c2ccc(OCC3CCOCC3)c(CO)c2)cc1", "meas-value": 0.11}

Notebook: "CCN1CCN(Cc2ccc(NC(=O)c3ccc(C)c(NC(=O)c4cncc(-c5cccs5)c4)c3)cc2C(F)(F)F)CC1" , Growth Rate read as -0.74

Notebook: "CS(C)(=O)=Nc1ccc(-c2ccc(-c3nc4[nH]c(O[C@@H]5CO[C@H]6[C@@H]5OC[C@H]6O)nc4cc3Cl)cc2)cc1" , Growth Rate read as 0.01

Notebook: "CC(C)(C)C(=O)NCc1ccc(Cl)c(C(=O)Nc2ncc[nH]2)c1" , Growth Rate read as 0.65

Notebook: O=C1CSC(=O)N1C(CCc1ccncc1)COc1ccc(-c2cccc([N+](=O)[O-])c2)cc1 (stereo not drawn) , Growth Rate read as -0.68

Notebook: "CC(=O)N1CCC(c2ccc(C(=O)NC3=NCCN3)cc2C(F)(F)F)CC1" , Growth Rate read as 0.95

====

tested on: HEK-293T; experiment: Incucyte cell viability with HEK293T; format: toxicity, cell-based; settings: human, 18 h, 10 µM, compound concentration 10 uM, replicate number 2; note: unitless GR value; below 1 slowed growth and below 0 cell loss
Examples of molecules with documented Growth Rate follow.
Answer as a number with no unit attached.

{"molecule": "FC(F)(F)c1ccc(Nc2ncnc3cc(-c4ncccc4C(F)(F)F)ccc23)cc1 [NGD-8243]", "measured-target": "HEK-293T", "Growth Rate": 0.92}
{"molecule": "CCN1CCN(Cc2ccc(NC(=O)c3ccc(C)c(Oc4ccnc5[nH]ccc45)c3)cc2C(F)(F)F)CC1.Cl.Cl.Cl.O", "measured-target": "HEK-293T", "Growth Rate": -0.55}
{"molecule": "CC[C@@]1(c2ccccc2)NC(=O)N(Cc2ccccc2)C1=O", "measured-target": "HEK-293T", "Growth Rate": 0.86}
{"molecule": "NS(=O)(=O)c1cncc(-c2nc(NCc3ccccn3)c3c(-c4ccccc4)cccc3n2)c1 [BMS-919373]", "measured-target": "HEK-293T", "Growth Rate": 0.22}
{"molecule": "O=C(Cc1ccccc1)Nc1nnc(N2C[C@H]3C[C@@H]2CN3c2cccnn2)s1 [A-446]", "measured-target": "HEK-293T", "Growth Rate": 0.86}

Notebook: "O=C(Nc1cccc(C(F)(F)F)c1)c1cc(Cl)ccc1O" , Growth Rate read as -0.41

====

test system: HEK-293T; experiment: Incucyte cell viability with HEK293T; format: toxicity, cell-based; details: human, 0 h, 10 µM, compound concentration 10 uM, replicate number 1; note: unitless GR value; below 1 slowed growth and below 0 cell loss
property-measured: Growth Rate
Answer as a number with no unit attached.

Examples with answers:
{"molecule": "CC1(C)Cc2nc(C3CCCC3)c([C@@H](F)c3ccc(C(F)(F)F)cc3)c(C3CCCCC3)c2[C@@H](O)C1", "meas-value": 0.94}
{"molecule": "C[C@@]1(Cc2ccc(C#N)cc2)C(=O)N(c2cc(Cl)cc(Cl)c2)c2ncc(C(=O)NC3(c4nc(C5CCC5)no4)CC3)n21", "meas-value": 0.53}
{"molecule": "CC(C)S(=O)(=O)c1ccccc1Nc1nc(N[C@@H]2CCCN(CCCCCCCNC(=O)COc3cccc4c3C(=O)N(C3CCC(=O)N(C)C3=O)C4=O)C2)ncc1Cl (some centres undefined)", "meas-value": -1}

With those in mind, consider the next molecule.
Notebook: "CCS(=O)(=O)Nc1cccc(Oc2cncc(Nc3ccc(I)cc3F)c2C(N)=O)c1" , Growth Rate read as 0.82
